Test system: E57 (patient-derived glioblastoma stem cells of mesenchymal subtype);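 note: cell Painting imaging in 384-well plates, CellProfiler features reduced to at least 20 principal components, Euclidean distance versus same-plate DMSO vehicle wells (0.1% v/v), median over six images per well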
MEASUREMENT_PROTOCOL: phenotypic distance (Euclidean, principal components) from DMSO controls (arbitrary units); higher = stronger morphological change
CONDITION_SUMMARY: 333.3 nM; exposure time: 72 h
Where a name gives a salt, the structure may show the parent alone.
REPORTED_METRIC: phenotypic distance

compound="CNCCCC12CCC(c3ccccc31)c1ccccc12 [Maprotiline hydrochloride]" assay_result=0.422
compound="COc1cc2c(cc1O)CC[C@@H]1[C@@H]2CC[C@]2(C)[C@@H](O)CC[C@@H]12 [2-methoxyestradiol]" assay_result=0.975
compound="O=C1c2c(O)ccc(O)c2C(=O)c2c(NCCNCCO)ccc(NCCNCCO)c21 [Mitoxantrone]" assay_result=7.05
compound="Nc1ccn([C@@H]2O[C@H](CO)[C@@H](O)C2(F)F)c(=O)n1 [Gemcitabine HCl]" assay_result=7.04
compound="C[C@@H](O[C@H]1OCCN(Cc2n[nH]c(=O)[nH]2)[C@H]1c1ccc(F)cc1)c1cc(C(F)(F)F)cc(C(F)(F)F)c1 [Aprepitant]" assay_result=0.479
compound=Cc1ccc2c(c1)C1(CCN(CCc3nc(-c4ccccc4)oc3C)CC1)OC(=O)N2 assay_result=0.49
compound="N=C(N)c1ccc(-c2ccc(-c3ccc(C(=N)N)cc3)o2)cc1 [Furamidine dihydrochloride]" assay_result=0.809
compound="Nc1ccn([C@@H]2O[C@H](CO)[C@@H](O)[C@@H]2O)c(=O)n1 [Cytarabine]" assay_result=7.13
compound="COC(=O)Nc1nc2cc(C(=O)c3ccc(F)cc3)ccc2[nH]1 [Flubendazol]" assay_result=2.68
compound="CC(=O)O[C@H]1C[C@H](O[C@H]2[C@@H](O)C[C@H](O[C@H]3[C@@H](O)C[C@H](O[C@H]4CC[C@@]5(C)[C@H](CC[C@@H]6[C@@H]5C[C@@H](O)[C@]5(C)[C@@H](C7=CC(=O)OC7)CC[C@]65O)C4)O[C@@H]3C)O[C@@H]2C)O[C@H](C)[C@H]1O[C@@H]1O[C@H](CO)[C@@H](O)[C@H](O)[C@H]1O [Lanatoside C]" assay_result=6.8
compound="CCC1=C[C@@H]2CN(C1)Cc1c([nH]c3ccccc13)[C@@](C(=O)OC)(c1cc3c(cc1OC)N(C)[C@H]1[C@@](O)(C(=O)OC)[C@H](OC(C)=O)[C@]4(CC)C=CCN5CC[C@]31[C@@H]54)C2 [Vinorelbine Tartrate]" assay_result=3.9
compound="COc1cccc2c(NCc3ccccc3)nc(-n3c(N)nc4ccccc43)nc12 [ML240]" assay_result=1.84
compound="C[C@@H](Oc1cc(-c2cnn(C3CCNCC3)c2)cnc1N)c1c(Cl)ccc(F)c1Cl [Crizotinib]" assay_result=0.355
compound=CC[n+]1c(/C=C/C=C2/N(C)c3ccccc3C2(C)C)sc2ccccc21 assay_result=6.37
